measured.on: hOT7T175 (Homo sapiens, UniProt Q969F8, L364H)
Sequence (Q969F8 whole entry L364H): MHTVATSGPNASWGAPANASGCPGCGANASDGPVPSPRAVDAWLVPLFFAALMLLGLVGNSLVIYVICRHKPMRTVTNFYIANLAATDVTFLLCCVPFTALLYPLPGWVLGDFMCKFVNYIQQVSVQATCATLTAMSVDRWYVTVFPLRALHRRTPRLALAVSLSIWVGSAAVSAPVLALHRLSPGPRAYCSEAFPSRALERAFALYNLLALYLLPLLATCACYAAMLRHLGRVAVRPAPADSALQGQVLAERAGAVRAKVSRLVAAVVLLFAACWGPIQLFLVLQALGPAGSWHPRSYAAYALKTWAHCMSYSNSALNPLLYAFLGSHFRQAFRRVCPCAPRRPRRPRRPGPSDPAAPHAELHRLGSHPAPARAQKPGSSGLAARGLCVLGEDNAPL
method.notes: Intracellular Ca ion level-increasing activity using FLIPR in hOT7T175/CHO
Assay type: cell-based
Design: expressed in transfected cells; host or cells: CHO/dhfr- cells, obtained from ATCC
condition.parameters: relative, Metastin (1-54) = 1
Square brackets hold non-standard residues; d marks the D form. Peptide text beside a SMILES is read from it. 2Nal = N[C@@H](Cc1ccc2ccccc2c1)C(=O)O; Arg(Me) = CNC(=N)NCCC[C@H](N)C(=O)O; d3Pal = N[C@H](Cc1cccnc1)C(=O)O; Cha = N[C@@H](CC1CCCCC1)C(=O)O; Orn = NCCC[C@H](N)C(=O)O; azaGly = NNC(=O)O
Items are presented alongside their recorded Specific Activity (intracellular Ca ion level-increasing activity).
measure.name: Specific Activity (intracellular Ca ion level-increasing activity)

compound | reported
CNC(=N)NCCC[C@H](NC(=O)[C@H](CC(C)C)NC(=O)NNC(=O)[C@H](Cc1ccccc1)NC(=O)[C@H](CO)NC(=O)[C@H](CC(N)=O)NC(=O)[C@@H](Cc1c[nH]c2ccccc12)NC(=O)[C@H](CC(N)=O)NC(=O)[C@H](N)Cc1ccc(O)cc1)C(=O)N[C@@H](Cc1ccccc1)C(N)=O [Compound No. 236] | 2
CNC(=N)NCCC[C@H](NC(=O)[C@H](CC(C)C)NC(=O)NNC(=O)[C@H](Cc1ccccc1)NC(=O)[C@H](CO)NC(=O)[C@H](CC(N)=O)NC(=O)[C@H](Cc1c[nH]c2ccccc12)NC(=O)[C@@H](CC(N)=O)NC(=O)[C@H](N)Cc1ccc(O)cc1)C(=O)N[C@@H](Cc1ccccc1)C(N)=O [Compound No. 237] | 3
CC(C)C[C@H](NC(=O)CNC(=O)[C@H](Cc1ccccc1)NC(=O)[C@H](CO)NC(=O)[C@H](CC(N)=O)NC(=O)[C@H](Cc1c[nH]c2ccccc12)NC(=O)[C@H](CC(N)=O)NC(=O)[C@@H](N)Cc1ccc(O)cc1)C(=O)N[C@@H](CCCN)C(=O)N[C@@H](Cc1ccccc1)C(N)=O [Compound No. 314] (H-YNWNSFGL[Orn]F-NH2) | 1
CNC(=N)NCCC[C@H](NC(=O)[C@H](CC(C)C)NC(=O)CNC[C@H](Cc1ccccc1)NC(=O)[C@H](CO)NC(=O)[C@H](CC(N)=O)NC(=O)[C@H](Cc1c[nH]c2ccccc12)NC(=O)[C@H](CC(N)=O)NC(=O)[C@H](N)Cc1ccc(O)cc1)C(=O)N[C@@H](Cc1ccccc1)C(N)=O [Compound No. 308] | 2
COc1ccc(C[C@H](NC(=O)[C@H](CCCNC(=N)N)NC(=O)[C@H](CC(C)C)NC(=O)CNC(=O)[C@H](Cc2ccccc2)NC(=O)[C@H](CO)NC(=O)[C@H](CC(N)=O)NC(=O)[C@H](Cc2c[nH]c3ccccc23)NC(=O)[C@H](CC(N)=O)NC(=O)[C@@H](N)Cc2ccc(O)cc2)C(N)=O)cc1 [Compound No. 18] (H-YNWNSFGLRY(Me)-NH2) | 1
CC(C)C[C@H](NC(=O)CNC(=O)[C@H](Cc1ccccc1)NC(=O)[C@H](CO)NC(=O)[C@H](CC(N)=O)NC(=O)[C@H](Cc1c[nH]c2ccccc12)NC(=O)[C@H](CC(N)=O)NC(=O)[C@@H](N)Cc1ccc(O)cc1)C(=O)N[C@@H](CCCNC(=N)N)C(=O)N[C@@H](Cc1c[nH]c2ccccc12)C(N)=O [Compound No. 134] (H-YNWNSFGLRW-NH2) | 30
CC(C)C[C@H](NC(=O)CNC(=O)[C@H](Cc1ccccc1)NC(=O)[C@H](CO)NC(=O)[C@H](CC(N)=O)NC(=O)[C@H](Cc1c[nH]c2ccccc12)NC(=O)[C@H](CC(N)=O)NC(=O)[C@@H](N)Cc1ccc(O)cc1)C(=O)N[C@@H](CCCNC(=N)N)C(=O)N[C@@H](Cc1ccc2ccccc2c1)C(N)=O [Compound No. 110] (H-YNWNSFGLR[2Nal]-NH2) | 20
CNC(=N)NCCC[C@H](NC(=O)[C@H](CC(C)C)NC(=O)CNC(=O)[C@H](CC1CCCCC1)NC(=O)[C@H](CO)NC(=O)[C@H](CC(N)=O)NC(=O)[C@H](CC1CCCCC1)NC(=O)[C@H](CC(N)=O)NC(=O)[C@H](N)Cc1ccc(O)cc1)C(=O)N[C@@H](Cc1c[nH]c2ccccc12)C(N)=O [Compound No. 182] (H-[dY]N[Cha]NS[Cha]GL[Arg(Me)]W-NH2) | 5
CNC(=N)NCCC[C@H](NC(=O)[C@H](CC(C)C)NC(=O)NNC(=O)[C@H](Cc1ccccc1)NC(=O)[C@@H](NC(=O)[C@H](CC(N)=O)NC(=O)[C@H](Cc1c[nH]c2ccccc12)NC(=O)[C@@H](CC(N)=O)NC(=O)[C@H](N)Cc1ccc(O)cc1)[C@@H](C)O)C(=O)N[C@@H](Cc1ccccc1)C(N)=O [Compound No. 298] (H-[dY][dN]WNTF[azaGly]L[Arg(Me)]F-NH2) | 5
CNC(=N)NCCC[C@H](NC(=O)[C@H](CC(C)C)NC(=O)NNC(=O)[C@H](Cc1ccccc1)NC(=O)[C@H](CO)NC(=O)[C@H](CC(N)=O)NC(=O)[C@H](Cc1c[nH]c2ccccc12)NC(=O)[C@H](CC(N)=O)NC(=O)[C@@H](C)N)C(=O)N[C@@H](Cc1ccccc1)C(N)=O [Compound No. 259] (H-[dA]NWNSF[azaGly]L[Arg(Me)]F-NH2) | 1
CNC(=N)NCCC[C@H](NC(=O)[C@H](CC(C)C)NC(=O)NNC(=O)[C@H](Cc1ccccc1)NC(=O)[C@H](CO)NC(=O)[C@H](CC(N)=O)NC(=O)[C@H](CC1CCCCC1)NC(=O)[C@@H](Cc1ccc(O)cc1)NC(=O)[C@H](N)Cc1cccnc1)C(=O)N[C@@H](Cc1ccccc1)C(N)=O [Compound No. 291] (H-[d3Pal][dY][Cha]NSF[azaGly]L[Arg(Me)]F-NH2; N-terminus assumed) | 2
